Recorded measurements of inhibition in vivo at 30 mg/kg, one per entry
- Tested on: gastric acid secretion
- Test details: Gastric acid secretion inhibition activity (pylorus-ligated, histamine-stimulated rats)
- Type: in vivo, Sprague-Dawley (SD) male rats
- Condition description: Rattus norvegicus; 30 mg/kg oral; pylorus ligated 3 hours later; histamine hydrochloride 30 mg/kg s.c.; total acidity over 3 hours; read-out: Acid secretion inhibition rate (%)
Reported metric: inhibition in vivo at 30 mg/kg (%)

Molecule	Target	Val
CCC(C#Cc1nc2ccccc2nc1C#CC(CC)OC)OC (centres unmarked)	gastric acid secretion	27
COCCC#Cc1nc2ccccc2nc1C#CCCOC	gastric acid secretion	41
CCCOCC#Cc1nc(C(=O)OC)c(C(=O)OC)nc1C#CCOCCC	gastric acid secretion	50
CCOC(=O)c1nc(C#CCOC)c(C#CCOC)nc1C(=O)OCC	gastric acid secretion	70
CCCC#Cc1nc(C#N)c(C#N)nc1C#CCOC	gastric acid secretion	61
CCC(C#Cc1nc2ccccc2nc1C#CC(CC)OCCOC)OCCOC (centres unmarked)	gastric acid secretion	32
COC(=O)c1nc(C#CC(OC)OC)c(C#CC(OC)OC)nc1C(=O)OC	gastric acid secretion	79
COCCOC(C)C#Cc1nc(C(=O)OC)c(C(=O)OC)nc1C#CC(C)OCCOC (centres unmarked)	gastric acid secretion	80

###

- Target: H^+,K^+ adenosine triphosphatase (Sus scrofa)
- Construct: hog stomach was homogenized and subjected to ultracentrifugation to obtain a microsome fraction; from tissue; host or cells: hog stomach, microsome fraction (discontinuous Ficoll gradient)
- Sequence (P19156 2-1034 limits assumed): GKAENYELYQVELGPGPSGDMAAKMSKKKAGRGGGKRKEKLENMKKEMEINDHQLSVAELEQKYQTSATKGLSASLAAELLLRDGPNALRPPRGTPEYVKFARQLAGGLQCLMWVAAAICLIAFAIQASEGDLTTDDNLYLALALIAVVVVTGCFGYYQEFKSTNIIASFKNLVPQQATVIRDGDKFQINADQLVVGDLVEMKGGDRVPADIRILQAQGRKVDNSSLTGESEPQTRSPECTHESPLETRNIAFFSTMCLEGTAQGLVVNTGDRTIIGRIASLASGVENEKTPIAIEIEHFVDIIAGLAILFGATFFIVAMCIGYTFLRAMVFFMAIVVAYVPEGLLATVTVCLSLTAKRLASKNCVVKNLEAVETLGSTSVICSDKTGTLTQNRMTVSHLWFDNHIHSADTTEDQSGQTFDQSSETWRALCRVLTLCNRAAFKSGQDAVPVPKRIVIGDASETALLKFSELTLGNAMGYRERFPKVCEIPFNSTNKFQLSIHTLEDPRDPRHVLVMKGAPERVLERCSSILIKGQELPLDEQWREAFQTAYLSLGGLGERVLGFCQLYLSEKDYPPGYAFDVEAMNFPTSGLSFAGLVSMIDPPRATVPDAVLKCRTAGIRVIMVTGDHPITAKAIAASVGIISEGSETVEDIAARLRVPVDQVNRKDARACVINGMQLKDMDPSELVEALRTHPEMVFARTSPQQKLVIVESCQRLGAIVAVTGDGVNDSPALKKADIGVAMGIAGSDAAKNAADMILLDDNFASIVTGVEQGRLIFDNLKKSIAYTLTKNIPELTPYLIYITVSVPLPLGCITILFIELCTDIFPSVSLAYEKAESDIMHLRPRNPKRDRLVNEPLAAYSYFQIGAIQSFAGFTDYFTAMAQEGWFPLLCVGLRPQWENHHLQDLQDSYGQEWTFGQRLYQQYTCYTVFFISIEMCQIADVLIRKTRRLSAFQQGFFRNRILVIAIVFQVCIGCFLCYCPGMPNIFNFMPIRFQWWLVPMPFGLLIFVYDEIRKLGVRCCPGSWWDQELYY
- Sequence (P18434 whole entry partner): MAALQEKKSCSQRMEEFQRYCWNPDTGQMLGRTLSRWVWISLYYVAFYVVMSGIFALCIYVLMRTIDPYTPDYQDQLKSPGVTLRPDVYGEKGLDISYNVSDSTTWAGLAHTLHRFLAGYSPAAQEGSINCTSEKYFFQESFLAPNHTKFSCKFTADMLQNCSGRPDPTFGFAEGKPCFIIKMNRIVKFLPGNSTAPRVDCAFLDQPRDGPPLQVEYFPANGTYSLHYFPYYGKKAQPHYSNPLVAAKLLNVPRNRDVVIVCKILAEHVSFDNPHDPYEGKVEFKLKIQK
- Test details: H+,K+ adenosine triphosphatase inhibition (proton pump inhibition)
- Assay type: biochemical, hog
- Condition description: H+,K+ ATPase fraction from hog stomach microsomes, ATP substrate, released inorganic phosphorus; read-out: Enzyme inhibition IC50 value (converted)
IC50 vs 30 µM: less than gives 1.0; not less than gives 0.0.

Molecule	Label class
CCCOCC#Cc1nc(C(=O)OC)c(C(=O)OC)nc1C#CCOCCC	0.0
CCC#Cc1nc(C(=O)OC)c(C(=O)OC)nc1C#CC(C)OC (stereo not drawn)	1.0
CCOC(C)C#Cc1nc2ccccc2nc1C#CC(C)OCC (stereo not drawn)	0.0
CCC(C#Cc1cnc2ccccc2n1)OCCOC (stereo not drawn)	0.0
CCOCCOC(C#Cc1nc2ccc(CO)cc2nc1C#CC(CC)OCCOCC)CC (stereo not drawn)	1.0
CCOC(C)(C)C#Cc1nc2ccccc2nc1C#CC(C)(C)OCC	0.0
CCC(C#Cc1nc2cccc(C)c2nc1C#CC(CC)OCCOC)OCCOC (stereo not drawn)	1.0
CCOCCOC(C)(C)C#Cc1nc2ccccc2nc1C#CC(C)(C)OCCOCC	0.0
COCCOC(C)C#Cc1nc(C(=O)OC)c(C(=O)OC)nc1C#CC(C)OCCOC (stereo not drawn)	1.0
CCOCCO[C@H](C#Cc1nc2ccccc2nc1C#C[C@@H](CC)OCCOCC)CC	0.0
COC(C)C#Cc1nc2ccccc2nc1C#CC(C)OC (stereo not drawn)	1.0
CCC(C#Cc1nc2ccccc2nc1C#CC(CC)OCCOC(C)C)OCCOC(C)C (stereo not drawn)	1.0

###

- Tested on: gastric acid secretion
- Test details: Gastric acid secretion inhibition activity (pylorus-ligated, histamine-stimulated rats)
- Format: in vivo, Sprague-Dawley (SD) male rats
- Condition description: Rattus norvegicus; 30 mg/kg oral; pylorus ligated 3 hours later; histamine hydrochloride 30 mg/kg s.c.; total acidity over 3 hours; read-out: Acid secretion inhibition rate (%)
Binary call on inhibition in vivo at 30 mg/kg: criterion met from 30% upward, criterion not met beneath that.

Compound	Label class
CCOC(C)C#Cc1nc2ccccc2nc1C#CC(C)OCC (centres unmarked) [Example 10, 2,3-bis(3-ethoxy-1-butynyl)quinoxaline]	criterion met
CCOC(C)C#Cc1nc2ccc(C(C)=O)cc2nc1C#CC(C)OCC (centres unmarked) [Example 33]	criterion not met
COCCCC#Cc1nc(C(=O)OC)c(C(=O)OC)nc1C#CCCCOC [Example 2]	criterion met
COCCOCC#Cc1nc2ccc(OC)cc2nc1C#CCOCCOC [Example 133]	criterion met
